Cited source: ChEMBL document CHEMBL6103573

Test system: SGC-7901
test summary: Antiproliferative activity against human SGC-7901 cells assessed as inhibition of cell proliferation incubated for 48 hrs by MTT assay
Type: functional, cell-based
experimental parameters: SGC-7901, 48 h
readout type: IC50 (nM)
Write the answer as a number in nM, unit excluded.

Q: API: value(readout=IC50, system=SGC-7901) for record CN(c1ccc2c(ccn2C)c1)c1nc(N2CCCC2)nc2sccc12
A: 2.01

---

System: KYSE-450
test summary: Antiproliferative activity against human KYSE-450 cells assessed as inhibition of cell proliferation incubated for 48 hrs by MTT assay
Assay type: functional, cell-based
experimental parameters: KYSE-450, 48 h
pIC50 by entry:
# log scale: pIC50 equals minus log10 of the concentration in mol/L

Observe how each entry below is paired with its result.
CC1CCN(c2nc(N(C)c3ccc4c(ccn4C)c3)c3ccsc3n2)CC1 :: 8.04
CN(c1ccc2c(ccn2C)c1)c1nc(N2CCC2)nc2sccc12 :: 7.79
CN(c1ccc2c(ccn2C)c1)c1nc(N2CCCC2)nc2sccc12 :: 8.50

Q: Item under review: COc1ccc(/C=C\c2cc(OC)c(OC)c(OC)c2)cc1O [COMBRETASTATIN A4] . Reported pIC50?
A: 8.29

Q: Sample COC1CCN(c2nc(N(C)c3ccc4c(ccn4C)c3)c3ccsc3n2)CC1 — what was its pIC50?
A: 8.08

Q: Find the recorded pIC50 belonging to CN(c1ccc2c(ccn2C)c1)c1nc(N2CCOCC2)nc2sccc12 and report it.
A: 7.25
